B1: DLC1 (parent)
chain: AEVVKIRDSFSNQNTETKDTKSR

- Variants of: B1
- measurement.notes: protein stability index of a GFP-peptide fusion (GPS, HEK-293T) (PSI 1-6); higher = more stable;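 further: lentivirally expressed fusions sorted by FACS into six bins by GFP to DsRed ratio, PSI derived from sequencing read proportions per bin multiplied by bin number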
- experimental.setup: c terminus: native
Tick Met if protein stability index is 2 or greater. Tick Not met if protein stability index is less than 2.

> print(dat)
     var    group
 1   E2L  Not met
 2   D8H      Met
 3  E16A      Met
 4   A1R      Met
 5  K21M      Met
 6   V4S      Met
 7   A1D      Met
 8  S11L  Not met
 9  T20A  Not met
10  Q13M  Not met
11   V4E      Met
12  T15A      Met
13  D19V  Not met
14   D8T      Met
15  F10K      Met
16  T15R  Not met
17  N14A  Not met
18  N12R  Not met
19  K18Y  Not met
20   V3N      Met
21  D19N      Met
22  F10M      Met
23  Q13T      Met
24  K21Q      Met
25  R23N      Met
26  K18P      Met
27  S22P      Met
28  T20H      Met
29   V4Q      Met
30   V4N      Met
31   D8Q  Not met
32  T20I      Met
33   A1L      Met
34   E2Q  Not met
35  F10T      Met
36  R23E      Met
37  K18E  Not met
38   I6M      Met
39  N14Q      Met
40  F10L      Met
41  K18Q  Not met
42   K5L      Met
43  N14L      Met
